target: HBO-KAT7 (Homo sapiens, UniProt O95251); construct: encoding amino acid residues 325 to 611 (Uniprot 095251-1) of human KAT7; made in house; host or cells: E. coli BL21 DE3 RIL; assay: Acetyltransferase biochemical assay (AlphaScreen), KAT7; settings: Table 3 (HBO-KAT7); 0.4 μM Acetyl coenzyme A, histone H3.1, 40 nM enzyme
Sequence (O95251 with tags, fused parts or gaps): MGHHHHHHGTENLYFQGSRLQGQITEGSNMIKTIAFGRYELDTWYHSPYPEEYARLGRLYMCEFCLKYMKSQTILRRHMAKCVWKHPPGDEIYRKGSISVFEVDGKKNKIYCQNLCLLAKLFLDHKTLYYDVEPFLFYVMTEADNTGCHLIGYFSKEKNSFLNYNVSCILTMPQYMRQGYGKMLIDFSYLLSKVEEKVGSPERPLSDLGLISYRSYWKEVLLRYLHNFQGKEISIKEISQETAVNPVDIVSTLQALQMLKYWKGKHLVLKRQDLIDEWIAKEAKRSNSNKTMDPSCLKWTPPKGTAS
Observation Type: pIC50
Field pIC50 (float): negative decimal logarithm of the concentration in molar.

{"Compound": "COc1ccccc1C(CNC(=O)C1=Nc2ccc(Cl)cc2S(=O)(=O)N1)c1ncco1 (centres unmarked) [Example 178]", "pIC50": 6.24}
{"Compound": "O=C(NCC(O)c1ccccc1OC(F)F)C1=Nc2ccc(I)cc2S(=O)(=O)N1 (centres unmarked) [Example 57]", "pIC50": 5.60}
{"Compound": "CNC(=O)c1ccccc1CCNC(=O)C1=Nc2ccc(I)cc2S(=O)(=O)N1 [Example 110]", "pIC50": 4.00}
{"Compound": "O=C(NCC(O)c1cccc(Cl)c1)C1=Nc2ccc(I)cc2S(=O)(=O)N1 (centres unmarked) [Example 124]", "pIC50": 4.73}
{"Compound": "O=C(NCC(c1ccccc1)c1ncco1)C1=Nc2ccc(Br)cc2S(=O)(=O)N1 (single isomer, unassigned) [Example 138]", "pIC50": 6.63}
{"Compound": "O=C(NCCc1ccccc1-c1cccnc1)C1=Nc2ccccc2S(=O)(=O)N1 [Example 34]", "pIC50": 4.22}

(Q) Query (compound): O=C(NCCc1ccccc1O)C1=Nc2ccc(I)cc2S(=O)(=O)N1 [Example 90] ; field requested: pIC50
(A) 6.04

----------
biological target: MOF-KAT8 (Homo sapiens, UniProt Q9H7Z6); test: Revised Acetyltransferase Biochemical Assay, KAT8
Sequence (Q9H7Z6 177-447): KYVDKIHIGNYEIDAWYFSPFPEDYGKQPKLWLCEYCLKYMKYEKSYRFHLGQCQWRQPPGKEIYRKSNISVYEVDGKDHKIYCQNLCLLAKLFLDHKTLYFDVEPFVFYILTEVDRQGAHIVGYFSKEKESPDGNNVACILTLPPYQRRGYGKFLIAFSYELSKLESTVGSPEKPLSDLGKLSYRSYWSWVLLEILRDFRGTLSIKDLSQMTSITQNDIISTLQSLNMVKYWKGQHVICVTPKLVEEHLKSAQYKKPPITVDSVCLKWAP
Observation Type: IC50 (µM)
The figure you give is taken to be in µM; do not add the unit.

{"Compound": "COc1ccccc1C(CNC(=O)C1=Nc2ccc(I)cc2S(=O)(=O)N1)c1ncco1 (stereo not shown) [Example 184]", "IC50 [µM]": 10.2}

Next compound, please.
(Q) Query (compound): O=C(NCC(F)(F)c1ccccc1)C1=Nc2ccc(I)cc2S(=O)(=O)N1 [Example 238] ; field requested: IC50
(A) 25.6

----------
molecular target: HBO-KAT7 (Homo sapiens); construct: encoding amino acid residues 325 to 611 (Uniprot 095251-1) of human KAT7; made in house; host or cells: E. coli BL21 DE3 RIL; experiment: Revised Acetyltransferase Biochemical Assay, KAT7; conditions: Table 9 (HBO-KAT7), 1 μM Acetyl coenzyme A
Observation Type: IC50

{"Compound": "COC(=O)c1ccc2c(c1)S(=O)(=O)NC(C(=O)NCC(c1ccccc1)c1ncco1)=N2 (stereo not shown)", "Recorded Result": "2880 nM"}
{"Compound": "O=C(NCC(c1cccc(Cl)c1)c1ncco1)C1=Nc2ccc(O)cc2S(=O)(=O)N1 (stereo not shown)", "Recorded Result": "204 nM"}
{"Compound": "O=C(NCC(O)c1ccccc1OC(F)F)C1=Nc2ccc(I)cc2S(=O)(=O)N1 (stereo not shown)", "Recorded Result": "840 nM"}

(Q) Query (compound): COc1cc(C)cc(C(CNC(=O)C2=Nc3ccc(I)cc3S(=O)(=O)N2)c2ncco2)c1 (stereo not shown) ; field requested: IC50
(A) 25 nM
